These data points were gathered from PubChem BioAssay AID1159580.

- Assay method text: chemical genetic growth profiling, strain panel (AID 1159580);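 also: tested at 20 µM; growth read once vehicle control cultures reached saturation at 30 °C; 1 = growth at the plate median or of vehicle wells; lower values mean less growth of the strain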
- Measurement conditions: S. cerevisiae deletion strains, growth OD, locus YFL009W, strain cdc4, active compounds read low
The whole screen tested about 5,500 compounds, of which about 2,000 (36%) were called active. Roughly 18% stayed inconclusive and do not appear here. The list shows a part of the results.
Quantity measured: normalized growth
One number for each entry.

// known answers, use as guide
# Molecule, normalized growth
rows = [
    ("Cc1c(C(=O)Sc2ccc(F)cc2F)sc2nc(C(F)(F)F)nn12", 0.102),
    ("O=[N+]([O-])c1ccc(-c2noc(-c3ccno3)n2)o1", 0.109),
    ("COc1cc(Cl)ccc1N/N=C(/C#N)C(N)=O", 0.109),
    ("O=C(/C=C/c1ccc2c(c1)OCO2)Nc1ccc(Br)cc1", 0.954),
    ("O=[N+]([O-])c1ccc(ON=C2CCCCC2)c([N+](=O)[O-])c1", 0.975),
    ("CC(C)(C)c1ccc(N/N=C(\\C#N)C(N)=O)cc1", 0.105),
]

Dear reader, for each entry below, please note its normalized growth.
1. Cc1cccc(NC(=S)N/N=C\c2ccc(F)cc2)c1
2. Cc1cc(C)cc(Sc2ccc3nnc(-c4ccccc4)n3n2)c1
3. CC(C)(C)c1ccc(C(=N)SC(C(=O)C(F)(F)F)c2ccccc2)cc1 (stereo unspecified)
4. C/C(Cc1nnn(-c2cc(C)on2)n1)=N/OC(=O)Nc1ccc(Cl)cc1
5. N#C/C(=N/Nc1ccccc1)C(=O)c1ccccc1OC(F)(F)F

0.953
0.979
0.991
0.98
0.91

* * *

- Assay method text: chemical genetic growth profiling, strain panel (AID 1159580)
- Measurement conditions: S. cerevisiae deletion strains, growth OD, locus YNL071W, strain lat1
Among all 5,500 compounds or so, about 2,000 (36%) were called active. Inconclusive results (about 18%) are left out. No stated cut-off is given here; in the data, active means normalized growth mostly below about 0.91 (no sharp cut-off); inconclusive means no clear call, values can overlap the other calls; inactive means mostly above about 0.92. The list shows a part of the results.
Hi! Could you answer with just one of these? T = active, F = inactive

Observe how each entry below is paired with its result.
# Compound, Label
records = [
    ("CC1(O)CC2C(CC1O)C2(C)C (stereo not drawn)", "F"),
    ("COc1cc([C@@H]2c3cc4c(cc3[C@@H](O)C3COC(=O)C32)OCO4)cc(OC)c1O (stereo partly drawn)", "F"),
    ("CCC[C@H](N[C@@H](C)C(=O)N1[C@H](C(=O)O)C[C@@H]2CCCC[C@@H]21)C(=O)OCC", "F"),
]

Consider now this further compound.
Each compound tested received a call. Report the one for COc1ccc2c(c1)OC/C(=C\c1ccc(OC)c(O)c1)C2=O .
T

* * *

- Assay method text: chemical genetic growth profiling, strain panel (AID 1159580)
- Measurement conditions: S. cerevisiae deletion strains, growth OD, locus YAL021C, strain ccr4, active compounds read low
Among all 5,500 compounds or so, about 2,000 (36%) were called active. Inconclusive results (about 18%) are left out. The list shows a part of the results.
Would you mind telling me the reported normalized growth of each entry?
Numbers only.

Recorded normalized growth, per entry:
# Molecule, Quantity measured, Quantitative result
records = [
    ("COc1cc2nc(N(C)CCCNC(=O)C3CCCO3)nc(N)c2cc1OC (stereo not given)", "normalized growth", 1.02),
    ("COC(=O)/C=C/C(C)=C/C=C/C(C)=C/C=C/C=C(C)/C=C/C=C(C)/C=C/C(=O)O", "normalized growth", 1.02),
    ("NCCCS(=O)(=O)O", "normalized growth", 1),
    ("CC[C@]1(O)CC2CN(CCc3c([nH]c4ccccc34)[C@@](C(=O)OC)(c3cc4c(cc3OC)N(C)[C@H]3[C@@](O)(C(=O)OC)[C@H](OC(C)=O)[C@]5(CC)C=CCN6CC[C@]43[C@@H]65)C2)C1 (stereo not given in full)", "normalized growth", 1),
    ("CCCCCCCCCCC[C@@H](C[C@H]1OC(=O)[C@H]1CCCCCC)OC(=O)[C@@H](CC(C)C)NC=O", "normalized growth", 1.01),
]

Please report normalized growth for every entry that follows.
1. O=C(NC(=O)c1ccccc1Cl)Nc1ccc(OC(F)(F)F)cc1
2. CC(=O)O[C@H]1C[C@@H](OC(C)=O)C(C)(C)C2CC(=O)[C@]3(C)C(CC[C@@]4(C)[C@H](C(=O)O)OC(=O)C5OC543)[C@]21C (stereo not given in full)
3. COc1ccc2c(c1)OC1(O)COc3cc(OC)c(OC)cc3C1=C2 (stereo not given)

1.05
0.96
1

Required: normalized growth, one value per molecule below.
1. COc1ccc(C2CNC(=O)C2)cc1OC1CCCC1 (stereo not given)
2. CN1C2C[C@H](OC(=O)[C@H](CO)c3ccccc3)C[C@H]1[C@@H](O)C2
3. CCC[C@H](N[C@@H](C)C(=O)N1[C@H](C(=O)O)C[C@@H]2CCCC[C@@H]21)C(=O)OCC

1. 1
2. 0.979
3. 1.01

// for each molecule in input: emit normalized growth
1. O=S(=O)(O)CCS
2. C=C[C@@](C)(O)CCC1C(=C)C[C@H](O)C2C(C)(C)CCCC12C (stereo not given in full)
3. O=C(O)c1cc2cc(F)ccc2[nH]1
4. COC(=O)C[C@H]1C2(C)CC34OC5(C)O[C@@]6([C@H](OC)C(OC(=O)C(C)C)[C@]7(C)C(/C(=C(/OC)C(C)C)C(=O)O[C@H]7c7ccoc7)[C@@]6(O5)[C@H](OC)[C@@]3(OC)C2OC(C)=O)[C@]14C (stereo not given in full)
5. C=C1CCC2[C@](C)(CO)[C@H](O)CC[C@@]2(C)[C@@H]1C/C=C1/C(=O)OC[C@H]1O (stereo not given in full)
6. C=C[C@@](C)(O)CCC1C(=C)CCC2[C@@](C)(CO)CCC[C@]12C (stereo not given in full)

1: 0.983; 2: 1.01; 3: 0.961; 4: 1; 5: 0.993; 6: 0.994

* * *

- Assay method text: chemical genetic growth profiling, strain panel (AID 1159580);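 also: tested at 20 µM; growth read once vehicle control cultures reached saturation at 30 °C; 1 = growth at the plate median or of vehicle wells; lower values mean less growth of the strain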
- Measurement conditions: S. cerevisiae deletion strains, growth OD, locus YOR231W, strain MKK1, active compounds read low
Out of some 5,500 compounds screened, about 2,000 (36%) were called active. Another 18% or so got no clear call; they are omitted. This is one part of the list.
Quantity measured: normalized growth
Answers are plain numbers.

Parameter requested: normalized growth. Apply to each item below.
1. COc1ccc(C(CC(=O)c2ccccc2)Sc2ccccc2N)cc1OC (centres undefined)
2. C[C@@H]1CC(Cl)CC[C@H]1C(=O)OC(C)(C)C (some centres undefined)
3. CCN1CCCC(OC(=O)C(c2ccccc2)c2ccccc2)C1 (centres undefined)
4. O=C(Nc1cccc(C(F)(F)F)c1)c1cncc(C#Cc2ccccc2)c1
5. C#CCN(C)Cc1ccccc1
6. Cc1cccc(NC(=S)N/N=C\c2ccc(F)cc2)c1
7. CCCc1cc(C(N)=S)ccn1

1: 0.937; 2: 1.01; 3: 0.983; 4: 0.915; 5: 0.997; 6: 0.843; 7: 1

List reported normalized growth for each of these compounds:
1. NCCc1cnc[nH]1
2. COC(=O)c1cc(=O)c(O)c2c(O)c(O)ccc2c1

[1, 0.672]

* * *

- Assay method text: chemical genetic growth profiling, strain panel (AID 1159580);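 also: tested at 20 µM; growth read once vehicle control cultures reached saturation at 30 °C; 1 = growth at the plate median or of vehicle wells; lower values mean less growth of the strain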
- Measurement conditions: S. cerevisiae deletion strains, growth OD, locus YPL078C, strain atp4, active compounds read low
The campaign covered roughly 5,500 compounds. About 2,000 (36%) were called active. Not shown: some 18% with an inconclusive outcome. The list shows a part of the results.
So basically: is normalized growth under 1? Then t. Not under? Then f.

These recorded examples may help you get a feel for the data.
# Compound, Label
rows = [
    ("COc1ccc(C(=O)CC(=O)O)c2c1C=CC(C)(C)O2", "f"),
    ("CN(C)CCN(Cc1ccccc1)c1ccccn1", "f"),
    ("c1ccc2c(c1)sc1ccccc12", "t"),
    ("CCCCCCCCCCC[C@@H](C[C@H]1OC(=O)[C@H]1CCCCCC)OC(=O)[C@@H](CC(C)C)NC=O", "f"),
    ("COc1ccc(CN(CCN(C)C)c2ccccn2)cc1", "f"),
]

normalized growth under 1? Item: CC[C@@H](C(=O)C(C)[C@@H](O)[C@H](C)CCc1ccc(C)c(O)c1C(=O)O)C1OC(CC)(C2CC[C@](O)(CC)[C@H](C)O2)C[C@@H]1C (some centres not stated)
f

* * *

- Assay method text: chemical genetic growth profiling, strain panel (AID 1159580);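 also: tested at 20 µM; growth read once vehicle control cultures reached saturation at 30 °C; 1 = growth at the plate median or of vehicle wells; lower values mean less growth of the strain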
- Measurement conditions: S. cerevisiae deletion strains, growth OD, locus YMR205C, strain PFK2
In all, about 5,500 compounds went through this assay and about 2,000 (36%) were called active. Another 18% or so got no clear call; they are omitted. No stated cut-off is given here; in the data, active means normalized growth mostly below about 0.91 (no sharp cut-off); inconclusive means no clear call, values can overlap the other calls; inactive means mostly above about 0.92. The list shows a part of the results.
Respond with a class label; see T = active, F = inactive

# Compound, Label
measured = [
    ("O=C(O)c1cc2cc(F)ccc2[nH]1", "F"),
    ("CCC[C@H](N[C@@H](C)C(=O)N1[C@H](C(=O)O)C[C@@H]2CCCC[C@@H]21)C(=O)OCC", "F"),
]

Recorded test call requested for Oc1cc(O)c2c(c1)O[C@H](c1ccc(O)c(O)c1)[C@@H](O)C2
F

Similarly, COC(=O)C1=COC(OC2OC(CO)C(O)C(O)C2O)C2C(C)CC(=O)C12 (configuration not stated) ?
F

And COC(=O)C[C@H]1C2(C)CC34OC5(C)O[C@@]6([C@H](OC)C(OC(=O)C(C)C)[C@]7(C)C(/C(=C(/OC)C(C)C)C(=O)O[C@H]7c7ccoc7)[C@@]6(O5)[C@H](OC)[C@@]3(OC)C2OC(C)=O)[C@]14C (some centres not stated) ?
F

Next entry: CO/N=C1/CN(c2nc3c(cc2F)c(=O)c(C(=O)O)cn3C2CC2)CC1CN (configuration not stated)
F
